biological target: Carbonic anhydrase 9 (Homo sapiens, UniProt Q16790); experiment: Inhibition of human recombinant carbonic anhydrase 9 preincubated for 15 mins by stopped-flow CO2 hydrase assay
hey, just use YES if measured Ki is less than 3 nM, otherwise NO

Quick check: Ki of CC1=NN2C=Nc3c(c(-c4ccc(Br)cc4)cn3-c3ccc(S(N)(=O)=O)cc3)C2=NC(c2ccccc2)=C1 under 3 nM?
NO

Also check N#Cc1c(N)nn2cnc3c(c(-c4ccc(Br)cc4)cn3-c3ccc(S(N)(=O)=O)cc3)c12
YES

Check N=c1c2c(-c3ccc(Br)cc3)cn(-c3ccc(S(N)(=O)=O)cc3)c2ncn1N too.
YES

Consider next the molecule C/C(CC(=O)c1ccccc1)=N/n1cnc2c(c(-c3ccc(Br)cc3)cn2-c2ccc(S(N)(=O)=O)cc2)c1=N in the same way.
YES

Try this molecule next: N#Cc1c(-c2ccc(Br)cc2)cn(-c2ccc(S(N)(=O)=O)cc2)c1N
NO

Quick one: CC(=O)Cc1nc2c3c(-c4ccc(Br)cc4)cn(-c4ccc(S(N)(=O)=O)cc4)c3ncn2n1
NO
